# EXPERIMENTAL_TARGET: Androgen Receptor (Homo sapiens, UniProt P10275)
# Construct: endogenous in cells; host or cells: VCaP cells
# Sequence (P10275 1-920): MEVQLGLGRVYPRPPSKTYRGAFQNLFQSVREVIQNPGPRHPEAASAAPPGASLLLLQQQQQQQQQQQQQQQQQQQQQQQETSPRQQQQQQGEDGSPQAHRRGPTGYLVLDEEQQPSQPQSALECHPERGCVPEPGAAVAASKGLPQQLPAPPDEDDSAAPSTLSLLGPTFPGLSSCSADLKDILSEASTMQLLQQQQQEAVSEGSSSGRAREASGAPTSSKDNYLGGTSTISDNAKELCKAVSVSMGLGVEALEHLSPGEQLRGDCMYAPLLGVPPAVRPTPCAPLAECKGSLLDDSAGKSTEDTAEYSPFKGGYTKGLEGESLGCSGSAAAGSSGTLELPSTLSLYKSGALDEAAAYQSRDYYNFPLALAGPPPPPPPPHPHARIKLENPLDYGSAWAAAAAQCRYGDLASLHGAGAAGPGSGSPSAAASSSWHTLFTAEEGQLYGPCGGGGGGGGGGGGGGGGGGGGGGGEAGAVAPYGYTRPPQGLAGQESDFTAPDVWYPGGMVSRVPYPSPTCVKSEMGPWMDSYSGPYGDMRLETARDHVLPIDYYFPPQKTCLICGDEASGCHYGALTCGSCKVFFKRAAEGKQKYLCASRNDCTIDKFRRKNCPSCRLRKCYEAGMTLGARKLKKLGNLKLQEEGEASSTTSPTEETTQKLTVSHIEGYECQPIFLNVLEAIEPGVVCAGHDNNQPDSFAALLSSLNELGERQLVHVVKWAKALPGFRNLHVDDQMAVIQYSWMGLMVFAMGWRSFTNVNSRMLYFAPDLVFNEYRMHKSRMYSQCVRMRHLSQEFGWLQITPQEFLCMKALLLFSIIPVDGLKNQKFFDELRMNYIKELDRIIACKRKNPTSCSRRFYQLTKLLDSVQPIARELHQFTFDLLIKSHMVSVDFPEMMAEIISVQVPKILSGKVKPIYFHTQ
# MEASUREMENT_PROTOCOL: Androgen Receptor ELISA assay (PathScan AR ELISA) in VCaP cells: AR degradation, Dmax and DC50
# Type: cell-based
# MEASUREMENT_CONTEXT: VCaP cells; Table 35; read-out: VCaP DC50
MEASURE: DC50

1) Cc1ncsc1-c1ccc([C@@H](C)NC(=O)[C@@H]2C[C@@H](O)CN2C(=O)[C@@H](NC(=O)COCCCCCNc2ccc(C(=O)N[C@H]3C(C)(C)[C@H](Oc4ccc(C#N)c(Cl)c4)C3(C)C)cc2)C(C)(C)C)cc1 [Example 459] | > 501 nM
2) CC(C)(C)[C@H](NC(=O)COCCCCCNc1ccc(C(=O)N[C@H]2C(C)(C)[C@H](Oc3ccc(C#N)c(Cl)c3)C2(C)C)cc1)C(=O)N1C[C@H](O)C[C@H]1C(=O)NCc1ccc(-c2cncnc2)cc1 [Example 534] | < 50 nM
3) CC(C)(C)[C@H](NC(=O)COCCCCCNc1ccc(C(=O)N[C@H]2C(C)(C)[C@H](Oc3ccc(C#N)c(Cl)c3)C2(C)C)cc1)C(=O)N1C[C@H](O)C[C@H]1C(=O)NCc1ccc(-n2nccn2)cc1 [Example 527] | < 50 nM
4) Cc1nccn1-c1ccc([C@H](C)NC(=O)[C@@H]2C[C@@H](O)CN2C(=O)[C@@H](NC(=O)COCCOc2ccc(-c3ccc(C(=O)N[C@H]4C(C)(C)[C@H](Oc5ccc(C#N)c(Cl)c5)C4(C)C)cc3)cc2)C(C)(C)C)cc1 [Example 449] | < 50 nM
5) CC(C)(C)[C@H](NC(=O)COCCCCCNc1ccc(C(=O)N[C@H]2C(C)(C)[C@H](Oc3ccc(C#N)c(Cl)c3)C2(C)C)cc1)C(=O)N1C[C@H](O)C[C@H]1C(=O)NCc1ccc(-c2ncns2)cc1 [Example 504] | < 50 nM

Problem: Look up DC50: Cc1ncsc1-c1ccc([C@H](C)NC(=O)[C@@H]2C[C@@H](O)CN2C(=O)[C@@H](NC(=O)COCCCCCNc2ccc(C(=O)N[C@H]3C(C)(C)[C@H](Oc4ccc(C#N)c(Cl)c4)C3(C)C)c(F)c2)C(C)(C)C)cc1 [Example 495]
Result: > 501 nM

Problem: Consider the compound shown here: Cc1ncsc1-c1ccc(CNC(=O)[C@@H]2C[C@@H](O)CN2C(=O)[C@@H](NC(=O)COCCCCCNc2ccc(C(=O)N[C@H]3C(C)(C)[C@H](Oc4ccc(C#N)c(Cl)c4)C3(C)C)cc2)C(C)C)cc1 [Example 537] What is its recorded DC50?
Result: < 50 nM

Problem: Fill in the blank: the reported DC50 of CC(C)[C@H](NC(=O)COCCCCCNc1ccc(C(=O)N[C@H]2C(C)(C)[C@H](Oc3ccc(C#N)c(Cl)c3)C2(C)C)cc1)C(=O)N1C[C@H](O)C[C@H]1C(=O)NCc1ccc(C#N)cc1 [Example 520] is ____.
Result: > 501 nM

Problem: Record request: DC50 value, item CC(C)(C)[C@H](NC(=O)COCCCCCNc1ccc(C(=O)N[C@H]2C(C)(C)[C@H](Oc3ccc(C#N)c(Cl)c3)C2(C)C)cc1)C(=O)N1C[C@H](O)C[C@H]1C(=O)NCc1ccc(C#N)cc1 [Example 542]
Result: < 50 nM

Problem: // returns reported DC50 for input Cc1ncsc1-c1ccc([C@H](C)NC(=O)[C@@H]2C[C@@H](O)CN2C(=O)[C@@H](NC(=O)CNCCNc2ccc(-c3ccc(C(=O)N[C@H]4C(C)(C)[C@H](Oc5ccc(C#N)c(Cl)c5)C4(C)C)cc3)cn2)C(C)(C)C)cc1 [Example 483]
Result: < 50 nM

Problem: Param item = CNC[C@H](NC(=O)[C@@H]1C[C@@H](O)CN1C(=O)[C@@H](NC(=O)COCCCCCOc1ccc(C(=O)N[C@H]2C(C)(C)[C@H](Oc3ccc(C#N)c(Cl)c3)C2(C)C)cc1)C(C)(C)C)c1ccc(-c2scnc2C)cc1 [Example 515] ; retrieve measured DC50.
Result: < 50 nM
